# test name: soluble on expression in E. coli; label from the status in PepcDB or PDB records
readout name: soluble on expression in E. coli

GSGSGSDIEAYLERIGYKKSRNKLDLETLTDILQHQIRAVPFENLNIHCGDAMDLGLEAIFDQVVRRNRGGWCLQVNHLLYWALTTIGFETTMLGGYVYSTPAKKYSTGMIHLLLQVTIDGRNYIVDAGSGRSYQMWQPLELISGKDQPQVPCVFRLTEENGFWYLDQIRREQYIPNEEFLHSDLLEDSKYRKIYSFTLKPRTIEDFESMNTYLQTSPSSVFTSKSFCSLQTPDGVHCLVGFTLTHRRFNYKDNTDLIEFKTLSEEEIEKVLKNIFNISLQRKLVPKHGDRFFTI: soluble
MSLSGEPYNFEYTFSKSHDIGVSLTIGKRNYMEDEVLIAGNIKEGIDLVGIFDGHNGSDAAKLAAKLFKEEIKHLEEEFDWITLFEKVHSTIIKSTESGTTATLALIYSNKITLVHCGDSTAFALKKRKLKKLTHDQNTSSLEEVSSIKKNGGVVEFNGGILRVNGQISVTRSLGDKKFHPPLTCIPEVIELESDDITSLVLTSDGISSVLQLDEIEAVMNSEMNVEEKSSTLRNQSFIREGKDNMSVIVVSFNEGHHHHHH: soluble

---

# test name: soluble on expression in E. coli; label from the status in PepcDB or PDB records
readout name: soluble on expression in E. coli

PWDSENTIYDKVDQTKRFIEDVVKSFKQNNAILGWILTNEISLVRIPQNDNIFLRWLRELYNYIKRIDDQHLISVGDNVSPFSHNFLRPENVKGIVDYASPHIYQYDQDPIRHSIRYFMILEYDRSAGLPVILEEFG: not soluble
MIELDQTNIPKHVAIIMDGNGRWAKQKNKMRIFGHTNGVTAVRKAVAYARQIGVEVLTLYAFSSENWSRPEQEISALMSLFMQALDREVKKLHKNNICLKIIGDVSRFSETLQEKIKKAENLTEKNTALTLNIAANYGGCWDIIQAAKQIAEKVKKEEMSVSDINNSTFQHHLATQNAPPVDLLIRTSGEQRISNFLLWQIAYAELYFSDVLWPDFNQLEFNRAIASYQQRHRRFGGTE: not soluble
MGSDKIHHHHHHMVKSNICGGSTMTQTLPKLVTFEQFIEWYPSNGARYELHKGVIVEMPPPSGEHENVVGFLAAQITLQFLQMGLPFCIPKTAFVKIQSNNSTYSPDILLLNHDNLVNEPLWSKQSTVIQAASIPLAVEVVSQCVARVPRVEATDEPVRVSTNWRDDYYDKFRDYEEMGIPEYWIVDYAAIGGKRFTGNPKQKTITICELVEGDYQMTVFRENNFVVSPLFPQLNLTAQQIFDSAL: not soluble

---

# test name: soluble on expression in E. coli; label from the status in PepcDB or PDB records
readout name: soluble on expression in E. coli

MGSDKIHHHHHHMWQDILNIHPDCIEDFINFDKLPGQAASLIAFAGMSYLQTEYKIGKTGKGNICLNNENNSGHVHYLISTHAGEGKIKLGNNEYLVKPGSIVLLPAGTPFLYELSGEYWEMCWLLLHDCSEYKFVHQLHPSVYSSINAERLYQTMSLIREFQHGESIYQSDIILRLVEVLVYQIAQTLNMGQQLTKQQQKFHSLIRRVNKQLQLSWTVKQLAAEMHMSEPHFFRLCKKEMGMTPIKLLTHTRLEYACYLLRYTQYNLDQIADTVGYGDSASFAHRFKKDYGLSPGRWRKEQINNFQSNDIENGEKR: not soluble
MEMKQISETTLKITISMDDLEERGMELKDFLIPQEKTEEFFYSVMDELDLPDNFKDSGMLSFRVTPRKDRLDVFVTKSEINKDINLEDLAEFGDMSQMTPEDFFKSLEQSMREKGDVKAHEKLEKIEEIMEDVVEATLANQSEAADPSTNHESEPLDYVHYVLDFSTITEAVAFAKTIDFSIEASELYKGSNCYHMTILLDVQQQPSYFANVMYARLIEHANPGSKTRAYLQEHGLQLMLDGAVEQLQKIELG: not soluble

All values here come from the DeepSol protein solubility set.
